assay_explanation: Aqueous solubility
Type: physicochemical
conditions_used: Table 1, aqueous solution; read-out: Low solubility (Observations)
experimental_readout: solubility

Ask | Can you share its solubility? I mean this molecule: N[n+]1c2ccccc2nc2ccccc21 [Entry 20, amino-phenazinium]
Reply | < 10 mM

---

assay_explanation: Cyclic voltammetry of the redox-active amines
conditions_used: Table 1; techniques of Example 1
experimental_readout: Ep^oxi vs Ag/AgCl (V)
Respond numerically; units are V and should not be typed.

1) Nc1ccc[n+](N)c1 [Entry 15]	1.03
2) COc1cc[n+](N)cc1.[O-][Cl+3]([O-])([O-])[O-] [Entry 4]	1.05
3) COc1ccc[n+](N)c1.[O-][Cl+3]([O-])([O-])[O-] [Entry 14]	0.84
4) CN(C)c1cc[n+](N)cc1 [Entry 6]	0.85
5) CC(C)(C)c1cc[n+](N)cc1.[O-][Cl+3]([O-])([O-])[O-] [Entry 3]	0.83
6) COc1cccc[n+]1N.O=[N+]([O-])[O-] [Entry 16]	1.73
7) Cc1ccc[n+](N)c1.[O-][Cl+3]([O-])([O-])[O-] [Entry 13]	1.00
8) N#Cc1cc[n+](N)cc1.O=[N+]([O-])[O-] [Entry 8]	0.88
9) NC(=O)c1cc[n+](N)cc1.O=[N+]([O-])[O-] [Entry 7]	0.88
10) Cc1cc(C)c[n+](N)c1.[O-][Cl+3]([O-])([O-])[O-] [Entry 18]	1.52

Ask | Can you share its Ep^oxi vs Ag/AgCl? I mean this compound: CNc1cc[n+](N)cc1.O=[N+]([O-])[O-] [Entry 12]
Reply | 0.87

Ask | Can you share its Ep^oxi vs Ag/AgCl? I mean this compound: Cc1cccc(C)[n+]1N.[O-][Cl+3]([O-])([O-])[O-] [Entry 17]
Reply | 1.04

Ask | Can you share its Ep^oxi vs Ag/AgCl? I mean this compound: N[n+]1ccc(O)cc1 [Entry 9]
Reply | 0.85

Ask | Can you share its Ep^oxi vs Ag/AgCl? I mean this compound: Nc1cc[n+](N)cc1 [Entry 5]
Reply | 1.02

// data source = patent US20240307819A1
